All figures here come from ChEMBL document CHEMBL3112423.

target_under_test: Prostaglandin E2 receptor EP1 subtype (Homo sapiens)
Sequence (P34995 whole entry): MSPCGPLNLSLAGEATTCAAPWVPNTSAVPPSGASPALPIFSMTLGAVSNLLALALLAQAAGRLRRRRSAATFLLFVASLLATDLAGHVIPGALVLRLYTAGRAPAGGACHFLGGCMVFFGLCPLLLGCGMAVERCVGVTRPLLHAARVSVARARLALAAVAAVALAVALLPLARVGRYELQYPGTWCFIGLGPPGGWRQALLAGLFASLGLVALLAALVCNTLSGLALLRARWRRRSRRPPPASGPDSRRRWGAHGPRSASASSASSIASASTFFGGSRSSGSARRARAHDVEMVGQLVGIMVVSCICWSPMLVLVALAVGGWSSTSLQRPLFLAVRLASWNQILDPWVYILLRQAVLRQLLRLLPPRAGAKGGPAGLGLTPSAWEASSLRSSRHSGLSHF
procedure_summary: Displacement of [3H]-PGE2 from human EP1 receptor expressed in recombinant HEK293 cell membranes after 90 mins by topcount scintillation counting analysis
value_type: Ki

Query :: Any idea what Ki was measured for C[C@H](NC(=O)[C@H]1CCCCN1CCOc1ccccc1)c1ccc(C(=O)O)cc1 ?
Result :: > 17.5 µM
